# measurement_description: Pharmacokinetics and Tissue Distribution in the MV4-11 xenograft model
# Format: in vivo, mice
# test_conditions: female, CB-17 SCID, mouse; lung; 5 mg/kg single intravenous dose
measurement_kind: Tmax (h)
API: value field is a number in h; no unit string.

In: Looking for the measured Tmax of Cc1sc2c(c1C)C(c1ccc(Cl)cc1)=N[C@@H](CC(=O)N1CCC(CN3CCN(Cc4ccc(-n5c(O)nnc5-c5cc(C(C)C)c(O)cc5O)cc4)CC3)CC1)c1nnc(C)n1-2.Cl , can you help?
Out: 1

====

# assay_target: HSP90α (Homo sapiens)
# measurement_description: HSP90α Binding Fluorescent Polarization (FP) Assay
# test_conditions: competition with FITC-geldanamycin; read-out: HSP90 Binding Potency
Field: IC50. Provide a value for each of the compounds that follow.

In: Short answer please: IC50, HSP90α (Homo sapiens), entry Cc1sc2c(c1C)C(c1ccc(Cl)cc1)=N[C@@H](CC(=O)N1CCC(CN3CCN(c4ccc(-n5c(O)nnc5-c5cc(C(C)C)c(O)cc5O)cc4)CC3)CC1)c1nnc(C)n1-2
Out: 100 to 1000 nM

In: Short answer please: IC50, HSP90α (Homo sapiens), entry CCN(Cc1ccc(OCCCNC(=O)C[C@@H]2N=C(c3ccc(Cl)cc3)c3c(sc(C)c3C)-n3c(C)nnc32)cc1)Cc1ccc(-n2c(O)nnc2-c2cc(C(C)C)c(O)cc2O)cc1
Out: 100 to 1000 nM

In: Short answer please: IC50, HSP90α (Homo sapiens), entry Cc1sc2c(c1C)C(c1ccc(Cl)cc1)=N[C@@H](CC(=O)N1CCC(CN3CCN(Cc4ccc(-n5c(O)nnc5-c5cc(C(C)C)c(O)cc5O)cc4)CC3)CC1)c1nnc(C)n1-2.Cl [Compound 74, hydrochloride]
Out: 100 to 1000 nM

In: Short answer please: IC50, HSP90α (Homo sapiens), entry Cc1nn(-c2ccc(C(N)=O)c(NCCOCCNC(=O)C[C@@H]3N=C(c4ccc(Cl)cc4)c4c(sc(C)c4C)-n4c(C)nnc43)c2)c2c1C(=O)CC(C)(C)C2
Out: > 1000 nM

In: Short answer please: IC50, HSP90α (Homo sapiens), entry Cc1sc2c(c1C)C(c1ccc(Cl)cc1)=N[C@@H](CCNCC1CCN(C(=O)C3CCN(Cc4ccc(-n5c(O)nnc5-c5cc(C(C)C)c(O)cc5O)cc4)CC3)C1)c1nnc(C)n1-2 (some centres unmarked)
Out: 100 to 1000 nM

====

# measurement_description: Pharmacokinetics and Tissue Distribution in the MV4-11 xenograft model
# Type: in vivo, mice
# test_conditions: female, CB-17 SCID, mouse; tumor; 5 mg/kg single intravenous dose
measurement_kind: Cmax (ng/g)
API: value field is a number in ng/g; no unit string.

In: Looking for the measured Cmax of Cc1sc2c(c1C)C(c1ccc(Cl)cc1)=N[C@@H](CC(=O)N1CCC(CN3CCN(Cc4ccc(-n5c(O)nnc5-c5cc(C(C)C)c(O)cc5O)cc4)CC3)CC1)c1nnc(C)n1-2.Cl [Compound 74] , can you help?
Out: 462

====

# assay_target: BRD4 (BD1+BD2) (Homo sapiens)
# Construct: 1.8 μg/ml recombinant BRD4 (BD1+BD2 domains) protein
# test_conditions: read-out: BRD4 Binding Potency
Field: IC50. Provide a value for each of the compounds that follow.

In: Short answer please: IC50, BRD4 (BD1+BD2) (Homo sapiens), entry Cc1sc2c(c1C)C(c1ccc(Cl)cc1)=N[C@@H](CC(=O)NCC1CCN(C(=O)C3CCN(Cc4ccc(-n5c(O)nnc5-c5cc(C(C)C)c(O)cc5O)cc4)CC3)CC1)c1nnc(C)n1-2
Out: 100 to 1000 nM

In: Short answer please: IC50, BRD4 (BD1+BD2) (Homo sapiens), entry Cc1sc2c(c1C)C(c1ccc(Cl)cc1)=N[C@@H](CC(=O)N1CCC(CN[C@@H](C)C(=O)N[C@H](C(=O)N3CCC[C@H]3C(=O)Nc3snnc3-c3ccccc3)C3CCCCC3)CC1)c1nnc(C)n1-2
Out: > 1000 nM

Cited source for all entries: patent US20220168427A1
